From: patent US9096591B2

assayed-system: human recombinant adrenergic α1D receptor (Homo sapiens)
Construct: expressed in transfected cells; host or cells: HEK-293 cells
Sequence (P25100 1-572): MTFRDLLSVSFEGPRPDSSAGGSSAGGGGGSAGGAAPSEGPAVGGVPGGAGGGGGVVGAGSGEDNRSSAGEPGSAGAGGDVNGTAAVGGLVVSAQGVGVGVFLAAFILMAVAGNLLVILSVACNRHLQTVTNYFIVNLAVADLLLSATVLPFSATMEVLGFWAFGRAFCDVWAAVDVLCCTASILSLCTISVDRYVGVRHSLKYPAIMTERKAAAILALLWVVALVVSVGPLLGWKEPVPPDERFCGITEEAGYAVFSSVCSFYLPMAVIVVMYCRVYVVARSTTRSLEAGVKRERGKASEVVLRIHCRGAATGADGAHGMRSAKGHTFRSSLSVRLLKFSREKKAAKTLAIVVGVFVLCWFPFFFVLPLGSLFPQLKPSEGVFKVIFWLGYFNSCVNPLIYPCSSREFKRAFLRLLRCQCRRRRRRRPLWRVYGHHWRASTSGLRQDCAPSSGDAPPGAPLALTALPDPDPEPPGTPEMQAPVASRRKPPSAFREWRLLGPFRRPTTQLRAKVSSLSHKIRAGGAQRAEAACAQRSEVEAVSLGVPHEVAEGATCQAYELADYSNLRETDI
assay-comment: Adrenergic α1D radioligand binding ([3H]Prozosin)
condition-info: compounds screened at 1 μM; read-out: Inhibition of ligand binding, Adren. alpha1D (percent inhibition of specific binding)
measured-metric: inhibition at 1 µM (%)

- COc1ccc2c(c1)c1c(n2CCc2nc(-c3ccccc3)cs2)CCN(C)C1: 72
- CN1CCc2c(c3ccncc3n2CCc2ccncc2)C1: 3
- CN1CCc2c(c3ccncc3n2CCc2ccccn2)C1: 3
- CN1CCc2c(c3ccccc3n2CCc2noc(-c3ccccc3)n2)C1: 60
- Cc1ccc2c(c1)c1c(n2CCc2noc(-c3ccccc3)n2)CCN(C)C1: 92
- CN1CCc2c(c3ncccc3n2CCc2ccncc2)C1: 2
- CN1CCc2c(c3cc(F)ccc3n2CCc2nc(-c3ccccc3)cs2)C1: 66
- Cc1ccc2c(c1)c1c(n2CCc2nc(-c3ccccc3)cs2)CCN(C)C1: 92
- Cc1ccc(CCn2c3c(c4cc(I)ccc42)CN(C)CC3)cn1: 69

###

Recorded measurements of Inhibition of ligand binding, Ser. 5-HT7, one per entry
assayed-system: Serotonin (5-Hydroxytryptamine) 5-HT7 (Homo sapiens)
Construct: expressed in transfected cells; host or cells: CHO cells
Sequence (P34969 whole entry): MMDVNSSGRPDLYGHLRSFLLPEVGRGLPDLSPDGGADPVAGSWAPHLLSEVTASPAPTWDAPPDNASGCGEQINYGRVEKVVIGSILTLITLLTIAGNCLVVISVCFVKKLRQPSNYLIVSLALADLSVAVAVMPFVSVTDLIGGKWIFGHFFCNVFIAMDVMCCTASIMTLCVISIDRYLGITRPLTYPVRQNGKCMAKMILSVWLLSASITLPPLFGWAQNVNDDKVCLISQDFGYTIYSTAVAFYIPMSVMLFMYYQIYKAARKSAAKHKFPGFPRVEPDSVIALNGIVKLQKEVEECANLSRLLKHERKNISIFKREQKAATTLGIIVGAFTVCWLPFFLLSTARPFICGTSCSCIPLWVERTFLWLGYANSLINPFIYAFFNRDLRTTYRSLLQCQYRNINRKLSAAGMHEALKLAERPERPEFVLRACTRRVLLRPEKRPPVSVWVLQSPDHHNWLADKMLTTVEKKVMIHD
assay-comment: Serotonin 5-HT7 radioligand binding ([3H]LSD)
Set-up: concentration or dose not given beside the values
condition-info: percent inhibition of specific binding
measured-metric: Inhibition of ligand binding, Ser. 5-HT7 (%)

• Cc1ccc2c(c1)c1c(n2CCc2ccc(C)nc2)CCN(C)C1=O [Compound 216] = 18
• CCOC(=O)N1CCc2c(c3cc(-c4cccnc4)ccc3n2CCc2ccc(C)nc2)C1 [Compound 19] = 12
• Cc1ccc2c(c1)c1c(n2CCc2ccccc2)CCNC1 [Compound 228] = 95
• Cc1ccc2c(c1)c1c(n2CCC(=O)N2CCC(N)CC2)CCN(C)C1 [Compound 231] = 0

###

Catalogue of inhibition at 1 µM readings, one per entry.
assayed-system: human recombinant histamine H1 receptor (Homo sapiens)
Construct: expressed in transfected cells; host or cells: CHO cells
Sequence (P35367 whole entry): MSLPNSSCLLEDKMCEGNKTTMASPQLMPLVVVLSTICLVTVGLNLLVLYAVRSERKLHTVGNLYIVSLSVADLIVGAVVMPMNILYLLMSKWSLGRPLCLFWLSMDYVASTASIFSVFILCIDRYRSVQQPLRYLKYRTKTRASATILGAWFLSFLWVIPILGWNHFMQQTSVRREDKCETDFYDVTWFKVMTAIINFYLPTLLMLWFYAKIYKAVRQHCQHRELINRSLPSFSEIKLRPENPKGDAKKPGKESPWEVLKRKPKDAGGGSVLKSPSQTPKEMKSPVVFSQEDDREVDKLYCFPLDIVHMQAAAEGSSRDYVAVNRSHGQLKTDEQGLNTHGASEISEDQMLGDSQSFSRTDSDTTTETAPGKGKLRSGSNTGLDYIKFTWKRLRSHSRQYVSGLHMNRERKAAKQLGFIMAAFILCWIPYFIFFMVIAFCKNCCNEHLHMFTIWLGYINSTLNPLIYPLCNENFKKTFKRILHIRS
assay-comment: Histamine H1 radioligand binding ([3H]Pyrilamine)
condition-info: percent inhibition of specific binding; screened at 1 μM; read-out: Inhibition of ligand binding, Hist. H1
measured-metric: inhibition at 1 µM (%)

* CN1CCc2c(c3cc(F)ccc3n2CCc2ccc(F)cc2)C1 | 97
* CN1CCc2c(c3cc(Cl)ccc3n2CCc2cccnc2)C1 | 101
* CN1CCc2c(c3cc(Cl)ccc3n2CCc2cncc(C(F)(F)F)c2)C1 | 99
* Cc1ccc2c(c1)c1c(n2CCN2CCCCC2)CCN(C)C1 | 56
* CN1CCc2c(c3cc(Cl)ccc3n2CC(=O)N2CCCC2)C1 | 84

###

assayed-system: human recombinant adrenergic α2B receptor (Homo sapiens)
Construct: expressed in transfected cells; host or cells: CHO-K1 cells
Sequence (P18089 whole entry): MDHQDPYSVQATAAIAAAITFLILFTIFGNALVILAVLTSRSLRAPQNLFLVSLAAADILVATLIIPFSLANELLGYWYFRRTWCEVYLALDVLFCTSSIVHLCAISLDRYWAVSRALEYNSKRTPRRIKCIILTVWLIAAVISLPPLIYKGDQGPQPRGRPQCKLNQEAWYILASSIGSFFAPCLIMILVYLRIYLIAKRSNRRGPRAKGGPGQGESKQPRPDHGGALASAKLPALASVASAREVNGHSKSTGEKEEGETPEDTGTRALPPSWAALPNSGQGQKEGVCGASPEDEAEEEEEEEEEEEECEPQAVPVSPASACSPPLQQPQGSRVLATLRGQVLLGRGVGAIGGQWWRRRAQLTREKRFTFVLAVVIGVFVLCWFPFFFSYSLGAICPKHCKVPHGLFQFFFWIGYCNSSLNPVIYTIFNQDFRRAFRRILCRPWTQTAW
assay-comment: Adrenergic α2B radioligand binding ([3H]Rauwolscine)
Parameters: concentration or dose not given beside the values
condition-info: percent inhibition of specific binding
# binarize Inhibition of ligand binding, Adren. alpha2B: threshold 60% inclusive, high side Condition met, low side Condition not met

* CCOc1ccc(CCn2c3c(c4cc(C)ccc42)CN(C)CC3)cc1 | Condition met
* CN1CCc2c(c3cc(Cl)ccc3n2CCc2cccnc2)C1 | Condition met
* Cc1ccc(CCn2c3c(c4cc(C(F)(F)F)ccc42)CN(C)CC3)cn1 | Condition not met
* CN1CCc2c(c3cc(Cl)ccc3n2CCC(=O)N2CCCC2)C1 | Condition not met
* CN1CCc2c(c3cc(F)ccc3n2CCc2ccc(F)cc2)C1 | Condition met
* CN1CCc2c(c3cc(Cl)ccc3n2CCN2CCCCC2)C1 | Condition met
* CCN1CCc2c(c3ccccc3n2CCc2ccccc2)C1 | Condition met
* CCc1ccc(CCn2c3c(c4cc(Cl)ccc42)CN(C)CC3)cn1 | Condition met
* Cc1ccc2c(c1)c1c(n2CCc2ccccc2)CC(O)N(C)C1=O (centres unmarked) | Condition not met
* CCc1ccc2c(c1)c1c(n2CCc2cnc(C)nc2)CCN(C)C1 | Condition met
* Cc1ccc2c(c1)c1c(n2CC(=O)N2CCCC2)CCN(C)C1 | Condition not met
* CN1CCc2c(c3cc(Cl)ccc3n2CC(=O)N2CCSCC2)C1 | Condition not met
* CC1CCN(C(=O)CCn2c3c(c4cc(Cl)ccc42)CN(C)CC3)CC1 | Condition not met
* CCc1ccc(CCn2c3c(c4cc(C)ccc42)CN(C)CC3)cn1 | Condition met
* Cc1ccc2c(c1)c1c(n2CCc2ccc(CO)nc2)CCN(C)C1 | Condition met
* CN1CCc2c(c3cc(Cl)ccc3n2CCC(=O)N2CCOCC2)C1 | Condition not met
* CN1CCc2c(c3cc(Cl)ccc3n2CC(=O)N2CCCC2)C1 | Condition not met
* CN1CCc2c(c3cc(Cl)ccc3n2CCc2ccc(C(F)(F)F)nc2)C1 | Condition met
* CN1CCc2c(c3ccc(Cl)cc3n2CCC2CCCCC2)C1 | Condition met
* CN1CCc2c(c3cc(OC(F)(F)F)ccc3n2CCc2ccc(C(F)(F)F)nc2)C1 | Condition not met
* CN1CCc2c(c3cc(I)ccc3n2CCc2ccccc2F)C1 | Condition met
* CN1CCc2c(c3cc(F)ccc3n2CCc2ccc(Cl)cc2)C1 | Condition met
* CCOC(=O)N1CCc2c(c3cc(-c4cccnc4)ccc3n2CCc2ccc(C)nc2)C1 | Condition not met
* CCCc1ccc(CCn2c3c(c4cc(Cl)ccc42)CN(C)CC3)cn1 | Condition met
* CN1CCc2c(c3cc(Cl)cc(F)c3n2CCc2ccc(C(F)(F)F)nc2)C1 | Condition met
* Cc1ccc(CCn2c3c(c4cc(C(=O)O)ccc42)CN(C)CC3)cn1 | Condition not met
* CN1CCc2c(c3cc(Cl)ccc3n2CC(=O)N2CC[S+]([O-])CC2)C1 | Condition not met
* CN1CCc2c(c3cc(Cl)ccc3n2CC(=O)N2CCCCC2)C1 | Condition not met
* Cc1cncc(CCn2c3c(c4cc(C)ccc42)CN(C)CC3)c1 | Condition met
* CCN1CCc2c(c3ccccc3n2CCc2ccc(C)cc2)C1 | Condition met
* CN1CCc2c(c3c(Cl)cccc3n2CCC2CCCCC2)C1 | Condition not met
* CCOC(=O)N1CCc2c(c3cc(Br)ccc3n2CCc2ccc(C)nc2)C1 | Condition not met
* CN1CCc2c(c3cccc(Cl)c3n2CCc2ccccc2)C1 | Condition met
* CN1CCc2c(c3cc(Cl)ccc3n2CCN2CCOCC2)C1 | Condition met
* Cc1ccc2c(c1)c1c(n2CC(=O)N2CCC(C)CC2)CCN(C)C1 | Condition not met
* CN1CCc2c(c3cc(Cl)ccc3n2CCc2ccncc2)C1 | Condition met
* Cc1ccc2c(c1)c1c(n2CCc2ccc(C)nc2)CC(=O)N(C)C1 | Condition not met
* CN1CCc2c(c3cc(Cl)ccc3n2CCc2ccc(Cl)cc2)C1 | Condition met

###

Overview of recorded Inhibition of ligand binding, Ser. 5-HT6 for various compounds
assayed-system: human recombinant serotonin (5-Hydroxytryptamine) 5-HT6 receptor (Homo sapiens, UniProt P50406)
Construct: expressed in transfected cells; host or cells: human HeLa cells
Sequence (P50406 whole entry): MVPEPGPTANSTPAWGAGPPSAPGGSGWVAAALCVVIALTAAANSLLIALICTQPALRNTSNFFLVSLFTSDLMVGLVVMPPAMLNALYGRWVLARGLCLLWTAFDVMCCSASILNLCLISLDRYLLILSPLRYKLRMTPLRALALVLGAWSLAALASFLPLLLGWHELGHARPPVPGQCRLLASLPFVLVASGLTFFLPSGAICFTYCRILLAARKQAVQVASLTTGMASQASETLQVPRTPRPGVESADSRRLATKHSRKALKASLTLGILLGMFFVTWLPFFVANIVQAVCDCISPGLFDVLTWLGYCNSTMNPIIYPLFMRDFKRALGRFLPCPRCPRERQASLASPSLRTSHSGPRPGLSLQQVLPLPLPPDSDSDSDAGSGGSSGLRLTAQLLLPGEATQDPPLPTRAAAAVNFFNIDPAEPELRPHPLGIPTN
assay-comment: Serotonin 5-HT6 radioligand binding ([3H]LSD)
Design: concentration or dose not given beside the values
condition-info: percent inhibition of specific binding
measured-metric: Inhibition of ligand binding, Ser. 5-HT6 (%)

* CCN1CCc2c(c3cc(C)ccc3n2CCc2ccccn2)C1 | 47
* Cc1ncc(CCn2c3c(c4cc(C(C)C)ccc42)CN(C)CC3)cn1 | 64
* CC(C)c1ccc(CCn2c3c(c4cc(Cl)ccc42)CN(C)CC3)cn1 | 88
* CN1CCc2c(c3cc(Cl)ccc3n2CC(=O)N2CCCCC2)C1 | 18
* CN1CCc2c(c3cc(Cl)ccc3n2CCC(=O)N2CCOCC2)C1 | 29
* CN1CCc2c(c3cc(Cl)ccc3n2CCc2ccc(F)cc2)C1 | 99
* Cc1ccc2c(c1)c1c(n2CCc2cnc(C)cn2)CCN(C)C1 | 75
* Cc1ccc2c(c1)c1c(n2Cc2ccc(C)nc2)CCN(C)C1 | 39
* CCc1ccc2c(c1)c1c(n2CCc2ccc(C)nc2)CCN(C)C1 | 85
* CN1CCc2c(c3cc(Cl)ccc3n2CCc2cccnc2)C1 | 94
* CN1CCc2c(c3cc(Cl)ccc3n2CCc2cncnc2)C1 | 82
* Cc1cccc2c3c(n(CCc4ccc(C(F)(F)F)nc4)c12)CCN(C)C3 | 39
* CN1CCc2c(c3ccc(Cl)cc3n2CCc2ccccc2)C1 | 103
* CN1CCc2c(c3cc(Cl)c(F)cc3n2CCc2ccc(C(F)(F)F)nc2)C1 | 57
* Cc1ccc(CCn2c3c(c4cc(CO)ccc42)CN(C)CC3)cn1 | 31
* CN1CCc2c(c3cc(Cl)ccc3n2CCC(=O)N2CCCCC2)C1 | 26
* CCN1CCc2c(c3ccccc3n2CCc2ccccc2)C1 | 82
* CCN1CCc2c(c3ccccc3n2CCc2ccccn2)C1 | 7
* Cc1ccc2c(c1)c1c(n2CCc2cnc(C)nc2)CCN(C)C1 | 69
